System: NCI-H460 lung
I would appreciate it if you answered using one of these outcomes: active, inactive

Would you please look over these solved cases?
Cc1ccnc(Nc2ccc([N+](=O)[O-])c(NCCN3CCOCC3)n2)c1; active
Oc1ccccc1C=Nc1nc(OCc2ccccc2)nc2[nH]ncc12; inactive

Recorded test outcome, item CCCCCCCCCCCCOC1C(C(CC(=O)N2CCN(Cc3ccc4c(c3)OCO4)CC2)NS(=O)(=O)c2cc(Cl)cc(Cl)c2)OC2OC(C)(C)OC21 (stereo not drawn)
inactive

----------
Tested on: CAKI-1 renal
Experiment: NCI tumour cell line growth inhibition, 48 h
Each item that follows carries a reported TGI.

Give its TGI value. Item: O=C(Nc1ccc(C(F)(F)F)cc1[N+](=O)[O-])c1cccnc1
8.11 µM

Given the entry O=C(N/N=C/c1ccc(F)cc1)c1ccc(C(F)(F)F)nc1Nc1cccc(C(F)(F)F)c1 , report its measured TGI.
2.32 µM

Requested read-out: TGI. Entry: Cc1ccc(C2=C(Cl)C(=O)C(c3ccc(C)cc3)=C(Cl)C2=O)cc1
> 100 µM

Which TGI reading was recorded for the compound COc1ccc(Cc2nc3cc(OC)c(OC)cc3c(=O)[nH]2)cc1 ?
> 93.4 µM

// returns reported TGI for input CC(NNC(=O)c1ccncc1)c1ccc(Cl)cc1Cl (configuration not stated)
> 100 µM

For the compound CC(=O)N1c2cc(N=NN(C)C)ccc2NC(=O)CC1C (configuration not stated) , what TGI is on record?
> 100 µM

Query (compound): COc1cc2c(cc1OC)C(=O)N(c1ccc(OCCN3CCCC3)cc1)C2=O ; field requested: TGI
> 100 µM

So what does the record say about TGI for CNCc1ccc(-c2[nH]c3cc(F)cc4c3c2CCNC4=O)cc1 ?
60 µM

Item under review: COc1cccc(C2C(C#N)=C(N)Oc3cc4c(cc32)OCO4)c1 (configuration not stated) . Reported TGI?
42.6 µM

----------
// values below are reported TGI
Tested on: BT-549 breast
Assay: NCI tumour cell line growth inhibition, 48 h

CC(=O)O[C@H]1C(=O)[C@@]2(C)[C@H]([C@H](OC(=O)c3ccco3)[C@]3(O)C[C@H](OC(=O)[C@H](O)[C@@H](NC(=O)c4ccccc4)c4ccccc4)C(C)=C1C3(C)C)[C@]1(OC(C)=O)CO[C@@H]1C[C@@H]2O; > 25 µM
NC(=O)c1ncn(C2OC(CO)C(O)C2O)c1N (configuration not stated); > 100 µM
O=c1nc2[nH]c3c(-c4n[nH]c(=O)[nH]c4=O)cccc3c2n[nH]1; > 100 µM
COc1ccc(C23OCC(Cc4cc(OC)c(OC)cc42)C3CO)cc1OC (configuration not stated); > 100 µM
O=C(NCc1ccccc1Cl)c1c(O)c2ccccc2[nH]c1=O; > 100 µM
COc1cc2c(cc1OC)C(=O)/C(=C/c1ccc(N(C)C)cc1)CC2; > 10 µM

Now for the compound whose TGI we want.
Give its TGI value. Item: Cn1c(=O)c2c(nc(N/N=C3/SCC(=O)N3Cc3ccccc3)n2C)n(C)c1=O
> 100 µM

----------
Each entry below carries its reported TGI.
Test system: SK-OV-3 ovarian
Experiment: NCI tumour cell line growth inhibition, 48 h

# example entries with known answers
CCC1CN2CCc3c([nH]c4ccccc34)[C@@](C(=O)OC)(c3cc4c(cc3OC)N(C)C3C(O)(C(=O)OC)C(C(=O)OC)C5(CC)C=CCN6CCC43C65)C[C@@H](C2)[C@@H]1C(C)(C)C (stereo partly drawn); > 10 µM
COc1cc(N(CCC#N)CCC#N)ccc1/C(N=Nc1ccc(C(=O)O)cc1)=N/NC(=O)c1cc(Br)ccc1O; > 150 µg/mL

Which TGI reading was recorded for the compound O=C(/C=C(\[O-])c1ccccc1)CCCCCCC(=O)/C=C(\[O-])c1ccccc1.O=C(/C=C(\[O-])c1ccccc1)CCCCCCC(=O)/C=C(\[O-])c1ccccc1.O=C(/C=C(\[O-])c1ccccc1)CCCCCCC(=O)/C=C(\[O-])c1ccccc1.[Nd+3].[Nd+3] ?
> 50 µM

----------
Test system: HT29 colon
Assay: NCI tumour cell line growth inhibition, 48 h; in the data active = GI50 below about 0.43 µM; inactive = the rest
Hello, when you answer, please use one of the following outcomes: True = active, False = inactive

Solved entries:
O=C1CCS/C(=N/S(=O)(=O)c2ccc(N3N=C4c5ccccc5CC4C3c3cccs3)cc2)N1Cc1ccccc1 (stereo unspecified); False
CC1=C(CNO)C2=C(C)C3(CC3)[C@@](C)(O)C(=O)C2=C1; False
O=C(C(=O)c1cc(Br)ccc1O)c1cc(Br)ccc1O; False
Cc1ccnc(Nc2ccc([N+](=O)[O-])c(NCCN3CCOCC3)n2)c1; True
COc1ccc(Cc2nc3cc(OC)c(OC)cc3c(=O)[nH]2)cc1; False

Which outcome was assigned to COc1cc(OC)cc(-c2ccc(-c3ccc(C(=N)N)cn3)s2)c1 in this test?
False

Hi team, can someone confirm the assay call for Nc1nc(=S)c2[nH]cnc2[nH]1 ?
False

Identify the outcome logged in this assay for the compound shown: Clc1ccc2c(NCCCN3CCN(c4nc(N5CCOCC5)nc5ccccc45)CC3)ccnc2c1
False

Hi, do you know how CCN(CC)CCNc1ccc([N+](=O)[O-])c2sc3cc(Cl)ccc3c(=O)c12 came out in this test?
False

# outcome recorded in this test, key = C=C1CC/C=C(\C)CC[C@H](C(=C)C)[C@@H](O)/C=C(/CO)CCC1O (stereo partly specified)
False

Record request — test call for CCCCCCCCCCCCOC1C(C(CC(=O)N2CCN(Cc3ccc4c(c3)OCO4)CC2)NS(=O)(=O)c2cc(Cl)cc(Cl)c2)OC2OC(C)(C)OC21 (stereo unspecified)
False

----------
Tested on: HL-60(TB) leukemia
Test: NCI tumour cell line growth inhibition, 48 h
endpoint: TGI

Given the compound COc1ccc(N=Nc2c(N)nn3c(SC)c(C#N)c(N)nc23)cc1 , what is its reported TGI?
6.07 µM

----------
System: MALME-3M melanoma
Assay: NCI tumour cell line growth inhibition, 48 h
Overview of recorded TGI for various compounds
Report the value in µM with no unit label.

Clc1ccc(C2=NCON=C2c2ccc(Cl)cc2)cc1; 27.7

Name the reported TGI value associated with the compound Cc1ccc(NCCN(C)C)c2c(=O)c3cc(O)ccc3sc12
11.2

If you can, please state the reported TGI value of COc1cc(OC)cc(-c2ccc(-c3ccc(C(=N)N)cn3)s2)c1 .
3.56

Look up TGI: CNCc1cccc2c1OCCOCCOCCC(C)S(=O)(=O)c1ccc(cc1)-c1cnc(N)c(n1)C(=O)N2 (stereo not drawn)
3.13

Which measured TGI value corresponds to COc1cc([C@@H]2Oc3cc4oc(-c5ccccc5)cc(=O)c4c(O)c3O[C@H]2OC)ccc1O ?
30.6

I would be grateful if you could share the reported TGI for CN(C)c1ccc(N=C2C=CC(=C(C#N)C#N)c3ccccc32)cc1 .
17.1

# lookup: TGI of CC1(Cl)CC(C)(/C=C/Cl)C(Cl)CC1Cl (stereo not drawn)
29.6

Item N/C(=N\C(N)=N\c1nc2ccccc2s1)c1cnccn1 has what recorded TGI?
5.66

----------
System: SR leukemia
Experiment: NCI tumour cell line growth inhibition, 48 h
endpoint: TGI

COc1ccc(/C(CC2OC(=O)c3ccccc32)=N\NC(N)=O)cc1 (configuration not stated); > 100 µM
CN(C)c1ccc(N=C2C=CC(=C(C#N)C#N)c3ccccc32)cc1; 48.1 µM
CCOC(=O)C1C(c2ccc(OC)cc2)c2c([nH]n(-c3ccccc3)c2=O)CC1(C)O (configuration not stated); > 100 µM

Return reported TGI; argument: NNC(=O)N/N=C1\CN(c2ccc(Cl)cc2Cl)C(=O)C(=O)C1c1nc2ccccc2o1 (configuration not stated)
> 100 µM

// returns reported TGI for input CCOC(=O)c1c(-c2ccccc2)c(C)cn1C
> 10 µM

Tell me the measured TGI of Cn1c(NC(=O)NC23CC4CC(CC(C4)C2)C3)nc2ccccc21 , please.
> 100 µM

----------
TGI reference
Tested on: SF-268 CNS
Experiment: NCI tumour cell line growth inhibition, 48 h

// solved cases for TGI follow
C[n+]1c2ccccc2c(C(=O)Nc2ccc(S(=O)(=O)Nc3ncccn3)cc2)c2ccccc21; > 100 µM
Cc1nc(Cc2n[nH]c(C)n2)n[nH]1; > 100 µM
COc1ccc(/C(CC2OC(=O)c3ccccc32)=N\NC(N)=O)cc1 (configuration not stated); > 100 µM
CSc1nc(C)c2c(n1)N(c1ccc(Cl)cc1)CC2; > 100 µM
C=CCN=C(N/N=C/c1ccc([N+](=O)[O-])o1)NS(=O)(=O)c1cc(C(=O)Nc2ccccc2)c(Cl)cc1SCC(N)=O; > 100 µM
c1cncc(C2ONC3=NCCN32)c1 (configuration not stated); > 100 µM

Kindly consider the entry below.
Provide value of TGI for this record tested with SF-268 CNS: CCCCCCCc1ccc(-c2nnc(N=Nc3ccc(OCCCCC)cc3)s2)s1
> 100 µM
